- measurement.protocol: In vivo pharmacokinetic study in rats, IV and PO dosing (Example 6)
- experimental.context: plasma; rat, 200 mg/kg IV, mean; calculated up to 2 hr
- Method: The pharmacokinetics of exemplary compounds was determined by comparison with 4-hydroxybutyric acid by dosing the compounds in rats according to the following study design and sampling procedure. The results of the in vivo studies are disclosed in the following table (Table 2): […]
Counter-ions that a name gives are not always drawn.
attribute.measured: half-life (min)

1) [2H]C([2H])(O)CC([2H])([2H])C(=O)[O-].[Na+] [IV-b, sodium salt, Sodium 2,2,4,4-d4-4-hydroxybutanoate]
37.8
2) O=C(O)CCCO [4-hydroxybutyric acid, sodium salt, sodium salt of 4-hydroxybutyric acid, reference compound]
15.6
3) [2H]C([2H])(CCO)C(=O)[O-].[Na+] [sodium 2,2-dideutero-4-hydroxybutanoate]
19.8
